- experimental_target: UniProt:Q9Y2R2
- Sequence (Q9Y2R2 24-289 limits assumed): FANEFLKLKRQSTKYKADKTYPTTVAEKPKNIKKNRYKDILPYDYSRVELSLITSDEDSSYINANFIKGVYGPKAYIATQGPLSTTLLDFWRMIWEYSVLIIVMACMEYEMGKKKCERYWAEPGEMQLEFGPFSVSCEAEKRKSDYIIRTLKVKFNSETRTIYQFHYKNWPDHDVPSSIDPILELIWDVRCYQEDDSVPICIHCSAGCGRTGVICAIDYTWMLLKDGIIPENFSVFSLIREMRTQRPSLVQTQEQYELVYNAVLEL
- test_name: LYP inhibition, follow-up of the 1536-well HTS, pCAP or OMFP substrate
- Format: biochemical
- setup_conditions: read-out: IC50, pCAP substrate, assayed using the pCAP substrate

record_smiles: O=C(O)COc1ccc(/C=N/NC(=O)c2ccc(-c3csc(Nc4ccc(Cl)cc4)n3)cc2)cc1
experimental_target: UniProt:Q9Y2R2
IC50 [µM]: 0.53
